Would you kindly list pIC50 for each of these compounds?
Molecular target: BTK recombinant protein (Homo sapiens (Human))
Test: Determination of biochemical BTK (Z'-LYTE kinase assay)
Scale: pIC50 equals -log10([C]), with [C] in mol/L.

For record COc1ccc(Nc2cc(-c3ccnc(-n4ccn5c6c(cc5c4=O)CCC6)c3CO)cn(C)c2=O)nc1 the listed pIC50 is 6.20

Looking up COCc1c(-c2cc(Nc3ccc(N4CCN(C5COC5)C[C@@H]4C)cn3)c(=O)n(C)c2)ccnc1-n1ccn2c3c(cc2c1=O)CC(C)(C)C3 , I found its pIC50 recorded as 6.77

Measured pIC50 of CCn1cc(Nc2cc(-c3ccnc(-n4ccn5c6c(cc5c4=O)CC(C)(C)C6)c3CO)cn(C)c2=O)cn1 : 7.39

Just so you know, measured pIC50 for Cc1ccc(Nc2cc(-c3ccnc(-n4ccn5c6c(cc5c4=O)CC(C)(C)C6)c3CO)cn(C)c2=O)nc1 came out at 7.48

For reference, reported pIC50 for Cc1cc(Nc2cc(-c3ccnc(-n4ccn5c6c(cc5c4=O)CC(C)(C)C6)c3CO)cn(C)c2=O)nn1C stands at 8.22

// pIC50 value for Cn1cc(-c2ccnc(-n3ccn4c5c(cc4c3=O)CC(C)(C)C5)c2CO)cc(Nc2cccnn2)c1=O : 8.05

The compound identified as Cn1cc(-c2ccnc(-n3ccn4c(c(F)c5ccccc54)c3=O)c2CO)cc(Nc2ccc(C3CN(C4COC4)C3)cn2)c1=O registered its pIC50 at 7.60

###

Biological target: phosphorylated BTK in Ramos cells (Homo sapiens (Human))
Assay: Determination of phosphorylated BTK in Ramos cells (BTK phospho-Y223 HTRF)
Conditions: anti-human IgM + hydrogen peroxide stimulation
Exercise: state measured IC50 for each of the molecules provided.
Number plus unit, in that order.

# IC50 measured on phosphorylated BTK in Ramos cells (Homo sapiens (Human)) for item CN1CCn2nc(Nc3cc(-c4ccnc(-n5ccn6c7c(cc6c5=O)CC(C)(C)C7)c4CO)cn4ncnc34)cc2C1 = 2 nM

Per the reported phosphorylated BTK in Ramos cells (Homo sapiens (Human)) data, Cn1cc(-c2ccnc(-n3ccn4c5c(cc4c3=O)CC(C)(C)C5)c2CO)cc(Nc2ccccn2)c1=O has IC50 of 8 nM

Record C[C@H]1CN(C2COC2)CCN1c1ccc(Nc2cc(-c3cncc(-n4ccn5c6c(cc5c4=O)CC(C)(C)C6)c3CO)cn(C)c2=O)nc1 has phosphorylated BTK in Ramos cells (Homo sapiens (Human)) IC50 equal to 7 nM

Test item Cn1cc(-c2ccnc(-n3ccn4c5c(cc4c3=O)CC(C)(C)C5)c2CO)cc(Nc2ccncn2)c1=O ; phosphorylated BTK in Ramos cells (Homo sapiens (Human)); reported IC50 was 13 nM

Tested on phosphorylated BTK in Ramos cells (Homo sapiens (Human)), the item C[C@@H](CNC1COC1)Nc1ccc(Nc2cc(-c3ccnc(-n4ccn5c6c(cc5c4=O)CC(C)(C)C6)c3CO)cn(C)c2=O)nc1 showed IC50 equal to 18 nM

Lab note: molecule C[C@H]1CN(C2COC2)CCN1c1ccc(Nc2cc(-c3ccnc(-n4ccn5c6c(cc5c4=O)CCCCC6)c3CO)cn(C)c2=O)nc1 tested on phosphorylated BTK in Ramos cells (Homo sapiens (Human)); recorded IC50 was 7 nM

###

Assay: Stability test in liver microsomes (mouse)
Format: in vitro ADME
Conditions: mouse liver microsomes 0.5 mg/mL, compound 1 μM, 37° C.
I'd be grateful if you could share measured MLM (percentage of the remaining compound after 30 minutes of incubation) for these entries.
Express it in %; write the number only.

Value of MLM (percentage of the remaining compound after 30 minutes of incubation) reported for the molecule CC1CCc2cc3c(=O)n(-c4nccc(-c5cc(Nc6ccc(N7CCN(C8COC8)C[C@@H]7C)cn6)c(=O)n(C)c5)c4CO)ccn3c2C1 (mixture of isomers) is 83.4

Entry C[C@H]1CN(C2COC2)CCN1c1ccc(Nc2cc(-c3ccnc(-n4ccn5c6c(cc5c4=O)CCC(F)(F)C6)c3CO)cn(C)c2=O)nc1 , MLM (percentage of the remaining compound after 30 minutes of incubation) reported as 89.5

Entry C[C@H]1CN(C2COC2)CCN1c1ccc(Nc2cc(-c3ccnc(N4CCn5c(cc6c5CC(C)(C)C6)C4=O)c3CO)cn(C)c2=O)nc1 [GDC-0853, fenebrutinib, reference compound] — recorded MLM (percentage of the remaining compound after 30 minutes of incubation) = 76.3

###

Test: Stability test in liver microsomes (rat)
Assay type: in vitro ADME
Conditions: rat liver microsomes 0.5 mg/mL, compound 1 μM, 37° C.
Readout Kind: RLM (percentage of the remaining compound after 30 minutes of incubation) (%)
Numbers only here, please. The scale is %.

Briefly, RLM (percentage of the remaining compound after 30 minutes of incubation) measured for C[C@@H]1CN(c2ccc(Nc3cc(-c4ccnc(-n5ccn6c7c(cc6c5=O)CCC7)c4CO)cn(C)c3=O)nc2)[C@@H](C)CN1C1COC1 : 98.9

RLM (percentage of the remaining compound after 30 minutes of incubation) recorded for this molecule, Cn1cc(-c2ccnc(-n3ccn4c5c(cc4c3=O)CC(C)(C)C5)c2CO)cc(Nc2ccc(N3CCN(C4COC4)CC3)cn2)c1=O , is 89.5

###

Target: BTK recombinant protein (Homo sapiens (Human), UniProt Q06187)
Sequence (Q06187 whole entry): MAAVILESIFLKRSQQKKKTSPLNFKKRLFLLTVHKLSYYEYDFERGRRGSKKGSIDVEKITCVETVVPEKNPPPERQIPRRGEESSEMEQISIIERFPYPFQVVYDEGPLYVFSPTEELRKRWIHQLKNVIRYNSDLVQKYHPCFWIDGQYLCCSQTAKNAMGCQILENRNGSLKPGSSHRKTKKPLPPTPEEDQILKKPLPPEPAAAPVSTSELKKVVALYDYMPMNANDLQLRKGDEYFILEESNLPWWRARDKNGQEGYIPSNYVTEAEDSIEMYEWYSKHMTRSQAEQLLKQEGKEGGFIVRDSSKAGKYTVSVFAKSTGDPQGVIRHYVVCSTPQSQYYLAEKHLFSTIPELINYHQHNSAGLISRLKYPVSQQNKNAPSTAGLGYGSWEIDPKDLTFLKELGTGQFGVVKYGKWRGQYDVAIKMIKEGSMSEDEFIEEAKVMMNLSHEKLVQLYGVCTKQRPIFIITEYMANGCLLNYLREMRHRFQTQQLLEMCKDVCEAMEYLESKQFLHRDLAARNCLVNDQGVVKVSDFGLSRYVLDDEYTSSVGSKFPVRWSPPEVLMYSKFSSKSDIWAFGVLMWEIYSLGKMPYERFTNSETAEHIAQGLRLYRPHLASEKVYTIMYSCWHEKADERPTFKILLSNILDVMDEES
Assay: Determination of biochemical BTK (Z'-LYTE kinase assay)
pIC50: −log10 of the molar value.
Returns one of yes (1) or no (0); yes (1) when pIC50 is >= 8.

-- ask For this compound, is measured pIC50 8 or higher? COc1ccc(Nc2cc(-c3ccnc(-n4ccn5c6c(cc5c4=O)CC(C)(C)C6)c3CO)cn(C)c2=O)nc1
-- reply no (0)

-- ask Confirm if pIC50 reported for the compound Cc1c(-c2ccnc(-n3ccn4c5c(cc4c3=O)CC(C)(C)C5)c2CO)cc(Nc2ccc(N3CCN(C4COC4)C[C@@H]3C)cn2)c(=O)n1C is 8 or above.
-- reply no (0)

-- ask pIC50 >= 8 for CCC(=O)Nc1cc(-c2ccnc(-n3ccn4c5c(cc4c3=O)CC(C)(C)C5)c2CO)cn(C)c1=O ?
-- reply no (0)

-- ask Has Cn1cc(-c2ccnc(-n3ccn4c5c(cc4c3=O)CC(C)(C)C5)c2CO)cc(Nc2ccc(N3CCC4C3CCN4C3COC3)cn2)c1=O (stereo not shown) a recorded pIC50 greater than or equal to 8?
-- reply no (0)

-- ask Identify whether the reported pIC50 of the following compound is 8 or greater: COCCN1CCn2nc(Nc3cc(-c4ccnc(-n5nc(C)n6c7c(cc6c5=O)CC(C)(C)C7)c4CO)cn(C)c3=O)cc2C1C (racemic)
-- reply no (0)

-- ask Is it the case that COCc1cc(Nc2cc(-c3ccnc(-n4ccn5c6c(cc5c4=O)CCC6)c3CO)cn(C)c2=O)nn1C has pIC50 reaching or exceeding 8?
-- reply no (0)

-- ask Is pIC50 for C[C@H]1COCCN1c1ccc(Nc2cc(-c3ccnc(-n4ccn5c6c(cc5c4=O)CCC6)c3CO)cn(C)c2=O)nc1 at or above 8?
-- reply no (0)

-- ask Form field: pIC50 at least 8? Entry: Cn1cc(Nc2cc(-c3ccnc(-n4ccn5c6c(cc5c4=O)CC(C)(C)C6)c3CO)cn(C)c2=O)nn1
-- reply yes (1)

-- ask Does C[C@H]1COCCN1c1ccc(Nc2cc(-c3ccnc(-n4ncn5c6c(cc5c4=O)CC(C)(C)C6)c3CO)cn(C)c2=O)nc1 have a reported pIC50 of at least 8?
-- reply yes (1)

-- ask Dear colleague, could you confirm whether CCn1cc(Nc2nc(-c3ccnc(-n4ccn5c6c(cc5c4=O)CC(C)(C)C6)c3CO)cn(C)c2=O)nn1 has pIC50 at or above 8?
-- reply no (0)

-- ask Hi team, for CCn1nc(-c2ccnc(-n3ccn4c5c(cc4c3=O)CC(C)(C)C5)c2CO)cc(Nc2ccc(N3CCN(C4COC4)C[C@@H]3C)cn2)c1=O , is the recorded pIC50 at or above 8?
-- reply no (0)

-- ask # check: pIC50 of Cn1cc(-c2ccnc(-n3ccn4c5c(cc4c3=O)CC(C)(C)C5)c2CO)cc(Nc2ccc(-c3ccc(C4COC4)cc3)cn2)c1=O is greater than or equal to 8
-- reply no (0)

-- ask Item Cn1cc(-c2ccnc(-n3ccn4c5c(c(F)c4c3=O)CCCC5)c2CO)cc(Nc2cc3n(n2)CCOC3)c1=O with pIC50 of 8 or above?
-- reply yes (1)

-- ask Hi team, for C[C@H]1COCCN1c1ccc(Nc2cc(-c3ccnc(-n4ccn5c6c(cc5c4=O)CC(C)(C)C6)c3CO)cn(C)c2=O)nn1 , is the recorded pIC50 at or above 8?
-- reply yes (1)

###

Target: phosphorylated BTK in Ramos cells (Homo sapiens (Human), UniProt Q06187)
Sequence (Q06187 whole entry): as above
Assay: Determination of phosphorylated BTK in Ramos cells (BTK phospho-Y223 HTRF)
Conditions: anti-human IgM + hydrogen peroxide stimulation
Provide the reported pIC50 of each item.
// scale note: pIC50 = -log10(conc_M); give the bare number

Field pIC50 (entry C[C@H]1CN2CCOCC2CN1c1ccc(Nc2cc(-c3ccnc(-n4ccn5c6c(cc5c4=O)CC(C)(C)C6)c3CO)cn(C)c2=O)nc1 (mixture of isomers) ) reads 8.40

The compound C[C@H]1CN(C2COC2)CCN1c1ccc(Nc2cc(-c3ccnc(-n4ncn5c6c(cc5c4=O)CCCC6)c3CO)cn(C)c2=O)nc1 showed pIC50 equal to 7.60

Entry COCCN1CCn2nc(Nc3cc(-c4ccnc(-n5ccn6c7c(cc6c5=O)CC(C)(C)C7)c4CO)cn(C)c3=O)cc2C1C (stereo not shown) — recorded pIC50 = 8.70

Entry COCCN1CCN(c2ccc(Nc3cc(-c4ccnc(-n5ncn6c7c(cc6c5=O)CC(C)(C)C7)c4CO)cn(C)c3=O)nc2)[C@@H](C)C1 , pIC50 reported as 8.15

GET /value?item= C[C@H]1CN(C2COC2)CCN1c1ccc(Nc2cc(-c3ccnc(-n4ccn5c6c(cc5c4=O)CC(C)(C)C6)c3CO)cn(C)c2=O)nc1 &field=pIC50 returns 8.40

The compound identified as COCCN1CCN(c2ccc(Nc3cc(-c4ccnc(-n5ncn6c7c(cc6c5=O)CC(C)(C)C7)c4CO)cn(C)c3=O)nc2)C(C)(C)C1 registered its pIC50 at 7.80

Reported pIC50 for Cc1ccc2c(c1)cc1c(=O)n(-c3nccc(-c4cc(Nc5ccc(N6CCN(C7COC7)C[C@@H]6C)cn5)c(=O)n(C)c4)c3CO)ccn12 was 7.41

// pIC50 lookup, compound = CCn1cc(Nc2cc(-c3ccnc(-n4ccn5c6c(cc5c4=O)CC(C)(C)C6)c3CO)cn(C)c2=O)nn1 , result: 7.85

Entry C[C@H]1COCCN1c1ccc(Nc2cc(-c3ccnc(-n4ccn5c6c(cc5c4=O)CC(C)(C)C6)c3CO)cn(C)c2=O)nc1 ; pIC50 = 8.00

According to the records, this compound Cn1cc(Nc2cc(-c3ccnc(-n4ccn5c6c(cc5c4=O)CC(C)(C)C6)c3CO)cn(C)c2=O)nn1 displays pIC50 of 8.70

Lab note: measured pIC50 of COC1CN(c2ccc(Nc3cc(-c4ccnc(-n5ncn6c7c(cc6c5=O)CC(C)(C)C7)c4CO)cn(C)c3=O)nc2)C1 was 7.96

Note to self: pIC50 recorded for C[C@H]1c2cc(Nc3cc(-c4ccnc(-n5ccn6c7c(cc6c5=O)CC(C)(C)C7)c4CO)cn(C)c3=O)nn2CCN1C1COC1 was 8.30

The value of pIC50 measured for the compound Cn1cc(-c2ccnc(-n3ccn4c5c(c(F)c4c3=O)CCCC5)c2CO)cc(Nc2ccc(N3CCN(C4COC4)CC3(C)C)cn2)c1=O turned out to be 8.05
